# Test system: Escherichia coli
# Procedure summary: Antibacterial activity against efflux-deficient Escherichia coli 1260 expressing transducant lig251 gene encoding temperature sensitive ligA
# Assay type: functional
Experimental endpoint: MIC (µM)

* C[C@H]1CC[C@H](Oc2nc(N)c(C(N)=O)c(O[C@H]3CCC[C@@H]3O)n2)CC1 | 1.2
* NC(=O)c1c(N)nc(OC2CCCC2)nc1Oc1cccc(CCC(=O)O)c1 | 1.2
* NC(=O)c1cnc(OCCF)nc1N | 28
* CC(C)Oc1ncc(C(N)=O)c(N)n1 | 15
* NC(=O)c1c(N)nc(OC2CCCC2)nc1O[C@H]1CCCC[C@@H]1CO | 1.2
* NC(=O)c1cnc(OC2CCCC2)nc1N | 9.4
* NC(=O)c1cnc(SC2CCCC2)nc1N | 33
* NC(=O)c1cnc(OC2CCCCC2)nc1N | 9.8
* COc1cc(NC[C@H]2CCCC(Oc3nc(OC4CCCC4)nc(N)c3C(N)=O)C2)cc(OC)c1 (stereo not given in full) | 1.6
* NC(=O)c1c(N)nc(OC2CCCC2)nc1Oc1ccccc1F | 9.4

a: NC(=O)c1c(N)nc(OC2CCCC2)nc1OC1CCCCC1F (stereo not given)
b: CC(C)Oc1nc(N)c(C(N)=O)c(OC2CCCCC2)n1
## Input Which has the higher MIC, a or b ? When you have decided, please share the label of that item.
## Output b
(b: 6.3 µM, a: 1.2 µM)

I: N=C(N)c1cnc(OC2CCCC2)nc1N
II: C[C@H]1CCCC[C@H]1Oc1ncc(C(N)=O)c(N)n1
## Input Response body: label of entry with the larger MIC; valid values I , II . Answer with the label corresponding to your selection.
## Output I

a: CC(C)Oc1nc(N)c(C(N)=O)c(O[C@H]2CCC[C@@H]2O)n1
b: NC(=O)c1c(N)nc(OC2CCCC2)nc1O[C@H]1CCCC[C@@H]1O
## Input Two entries are listed, a and b . Which one carries the higher MIC? API: response body contains the label of the selected item.
## Output a
